Test system: cultured cells of Taxus baccata LINN
Assay: Growth rate and taxane yield, 21-day shake culture of Taxus baccata cells with heavy metal compound, amine, antiethylene agent or Ethrel added
Assay type: cell-based
Details: 10^−4 M added at start, 21 days
Protocol: One gram (fresh weight) of the callus was inoculated to an Erlenmeyer flask containing 20 ml of liquid Woody Plant Medium to which the above-mentioned component was added to give the same concentration and shake culture was carried out with a rotary shaker (amplification of 25 mm, 100 rpm) and the callus was subcultured in every 21 days to accelerate the growth rate thereof. Then shake culture was carried out at 25° C. for 21 days. […]
# growth rate annotations
Please make sure the unit comes right after the number.

# count of solved cases: 4
[[record]]
compound = "NCCCCN"
reported_result = "2.6 times"

[[record]]
compound = "NCCCNCCCCNCCCN"
reported_result = "2.3 times"

[[record]]
compound = "[Cl][Co][Cl] [cobalt chloride]"
reported_result = "2.7 times"

[[record]]
compound = "NCCCCNCCCN"
reported_result = "3.1 times"


Here is the next item to consider.
O=S([O-])([O-])=S.[Ag+].[Ag+] [silver thiosulfate, [Ag(S2O3)2]^3−] yielded growth rate of 2.7 times

Data provenance: patent US6403343B2
